B1: FAM50A (parent)
chain: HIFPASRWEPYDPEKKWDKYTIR

# Variants of: B1
# measurement_protocol: protein stability index of a GFP-peptide fusion (GPS, HEK-293T) (PSI 1-6); higher = more stable;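 also: lentivirally expressed fusions sorted by FACS into six bins by GFP to DsRed ratio, PSI derived from sequencing read proportions per bin multiplied by bin number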
# particulars: c terminus: native
Attribute: protein stability index
observed_property: protein stability index

{"sequence_string": "HIFPASRWEPYDPEDKWDKYTIR [K15D]", "observed_property": "protein stability index", "observed_measurement": 2.05}
{"sequence_string": "HIFPASRWEPYFPEKKWDKYTIR [D12F]", "observed_property": "protein stability index", "observed_measurement": 2.48}
{"sequence_string": "HIFPISRWEPYDPEKKWDKYTIR [A5I]", "observed_property": "protein stability index", "observed_measurement": 2.18}
{"sequence_string": "HIFPASGWEPYDPEKKWDKYTIR [R7G]", "observed_property": "protein stability index", "observed_measurement": 2.5}
{"sequence_string": "HIFPAGRWEPYDPEKKWDKYTIR [S6G]", "observed_property": "protein stability index", "observed_measurement": 2.98}
{"sequence_string": "HIFPASRWEPYDPEKLWDKYTIR [K16L]", "observed_property": "protein stability index", "observed_measurement": 2.63}
{"sequence_string": "HIFPASRWEPYDPEKKWDMYTIR [K19M]", "observed_property": "protein stability index", "observed_measurement": 1.9}
{"sequence_string": "HIFPASRWEEYDPEKKWDKYTIR [P10E]", "observed_property": "protein stability index", "observed_measurement": 2.32}
{"sequence_string": "HIFPANRWEPYDPEKKWDKYTIR [S6N]", "observed_property": "protein stability index", "observed_measurement": 2.86}
{"sequence_string": "HIFKASRWEPYDPEKKWDKYTIR [P4K]", "observed_property": "protein stability index", "observed_measurement": 2}
{"sequence_string": "HIFPASRWEPYDPLKKWDKYTIR [E14L]", "observed_property": "protein stability index", "observed_measurement": 2.1}
{"sequence_string": "HIFPASRWEPYDFEKKWDKYTIR [P13F]", "observed_property": "protein stability index", "observed_measurement": 2.8}
{"sequence_string": "HIFWASRWEPYDPEKKWDKYTIR [P4W]", "observed_property": "protein stability index", "observed_measurement": 1.64}
{"sequence_string": "HIFPASRWEPYWPEKKWDKYTIR [D12W]", "observed_property": "protein stability index", "observed_measurement": 1.8}
{"sequence_string": "HIFPASRWEPYPPEKKWDKYTIR [D12P]", "observed_property": "protein stability index", "observed_measurement": 1.69}
{"sequence_string": "HIFPASRWEPYDPEKKWDKYTAR [I22A]", "observed_property": "protein stability index", "observed_measurement": 2.03}
{"sequence_string": "HIFPASRWEPFDPEKKWDKYTIR [Y11F]", "observed_property": "protein stability index", "observed_measurement": 2.18}
{"sequence_string": "HIFPSSRWEPYDPEKKWDKYTIR [A5S]", "observed_property": "protein stability index", "observed_measurement": 3.2}
{"sequence_string": "HIFPASRWMPYDPEKKWDKYTIR [E9M]", "observed_property": "protein stability index", "observed_measurement": 1.77}
{"sequence_string": "HWFPASRWEPYDPEKKWDKYTIR [I2W]", "observed_property": "protein stability index", "observed_measurement": 2.16}
{"sequence_string": "HIFPASRWEPYDPYKKWDKYTIR [E14Y]", "observed_property": "protein stability index", "observed_measurement": 2.68}
{"sequence_string": "HIFPASRWEPYDPEKKWAKYTIR [D18A]", "observed_property": "protein stability index", "observed_measurement": 1.96}
{"sequence_string": "HIFPASRWEIYDPEKKWDKYTIR [P10I]", "observed_property": "protein stability index", "observed_measurement": 1.24}
{"sequence_string": "HIFPASRWWPYDPEKKWDKYTIR [E9W]", "observed_property": "protein stability index", "observed_measurement": 2.74}
